measurementDescription: Evaluated for antisickling activity, and ratio was calculated as solubility HbS (g/dL) / solubility HbS control(g/dL) at a concentration of 5 mM
Assay type: functional
reportedMetric: Ratio

> print(dat)
                                    compound  reportedmetric  observedresult
 1  CC(C)(Oc1ccc(CCNC(=O)c2ccc(Cl)cc2)cc1)C(=O)O           Ratio           0.954
 2   CCCCCCCC(=O)Nc1cc(OCC(=O)O)cc(C(=O)O)c1           Ratio            1.04
 3  O=C(O)c1ccccc1OC(=O)C1CCCN1C(=O)c1ccccc1 (stereo unspecified)           Ratio           0.999
 4  CC(C)(C)CC(=O)N1CCCC1C(=O)Oc1ccccc1C(=O)O (stereo unspecified)           Ratio           0.991
 5  O=C(O)COc1cc(NC(=O)c2ccc(Br)cc2)cc(C(=O)O)c1           Ratio            1.02
 6  O=C(O)c1ccccc1OC(=O)C1CCCN1C(=O)Cc1ccccc1 (stereo unspecified)           Ratio            1.03
 7  CC(C)(C)C(=O)N1CCCC1C(=O)Oc1ccccc1C(=O)O (stereo unspecified)           Ratio           0.993
 8        CCC(=O)Nc1cc(OCC(=O)O)cc(C(=O)O)c1           Ratio               1
 9  CC(C)(C)C(=O)N1CCCC1C(=O)O (stereo unspecified)           Ratio            1.03
10  O=C(O)COc1cc(NC(=O)c2ccc(Cl)cc2)cc(C(=O)O)c1           Ratio            1.07
11  O=C(O)COc1cc(NC(=O)c2ccc(Cl)c(Cl)c2)cc(C(=O)O)c1           Ratio            1.09
12  O=C(O)c1ccccc1OC(=O)C1CCCN1C(=O)CCC(O)c1ccccc1 (stereo unspecified)           Ratio            0.99
13  O=C(O)c1ccccc1OC(=O)C1CCCN1C(=O)COc1ccccc1 (stereo unspecified)           Ratio           0.987
14  O=C(O)C1CCCN1C(=O)Cc1ccccc1 (stereo unspecified)           Ratio               1
15  O=C(O)COc1cc(NC(=O)c2ccccc2)cc(C(=O)O)c1           Ratio            1.06
16                  N[C@@H](Cc1ccccc1)C(=O)O           Ratio            1.04

====

measurementDescription: Evaluated for antisickling activity, and ratio was calculated as solubility HbS compound (g/dL) / solubility HbS control(g/dL) at a concentration of 40 mM
Format: functional
reportedMetric: Ratio

> print(dat)
                                    molecule  reportedmetric  observedresult
 1  O=C(O)c1ccccc1OC(=O)C1CCCN1C(=O)COc1ccccc1 (stereo unspecified)           Ratio            1.08
 2  O=C(O)c1ccccc1OC(=O)C1CCCN1C(=O)c1ccccc1 (stereo unspecified)           Ratio            1.03
 3  CC(C)(C)CC(=O)N1CCCC1C(=O)Oc1ccccc1C(=O)O (stereo unspecified)           Ratio            1.05
 4        CCC(=O)Nc1cc(OCC(=O)O)cc(C(=O)O)c1           Ratio            1.15
 5  O=C(O)c1ccccc1OC(=O)C1CCCN1C(=O)CCC(O)c1ccccc1 (stereo unspecified)           Ratio            1.15
 6  O=C(O)COc1cc(NC(=O)c2ccc(Br)cc2)cc(C(=O)O)c1           Ratio            1.32
 7  O=C(O)COc1cc(NC(=O)c2ccccc2)cc(C(=O)O)c1           Ratio            1.37
 8  O=C(O)COc1cc(NC(=O)c2ccc(Cl)c(Cl)c2)cc(C(=O)O)c1           Ratio            1.45
 9  O=C(O)COc1cc(NC(=O)c2ccc(Cl)cc2)cc(C(=O)O)c1           Ratio            1.38
10                  N[C@@H](Cc1ccccc1)C(=O)O           Ratio            1.18
11  O=C(O)c1ccccc1OC(=O)C1CCCN1C(=O)Cc1ccccc1 (stereo unspecified)           Ratio            1.15

====

Items are presented alongside their recorded Ratio.
measurementDescription: Evaluated for antisickling activity, and ratio was calculated as solubility HbS (g/dL) / solubility HbS control(g/dL) at a concentration of 20 mM
Format: functional
reportedMetric: Ratio

> print(dat)
                                    compound  observedresult
 1  O=C(O)c1ccccc1OC(=O)C1CCCN1C(=O)CCC(O)c1ccccc1 (configuration not stated)               1
 2        CCC(=O)Nc1cc(OCC(=O)O)cc(C(=O)O)c1            1.07
 3  O=C(O)c1ccccc1OC(=O)C1CCCN1C(=O)Cc1ccccc1 (configuration not stated)            1.05
 4  O=C(O)c1ccccc1OC(=O)C1CCCN1C(=O)c1ccccc1 (configuration not stated)            1.01
 5   CCCCCCCC(=O)Nc1cc(OCC(=O)O)cc(C(=O)O)c1            1.23
 6  CC(C)(C)C(=O)N1CCCC1C(=O)O (configuration not stated)            1.05
 7  O=C(O)c1ccccc1OC(=O)C1CCCN1C(=O)CCc1ccccc1 (configuration not stated)           0.983
 8  O=C(O)COc1cc(NC(=O)c2ccccc2)cc(C(=O)O)c1            1.16
 9  CC(C)(C)CC(=O)N1CCCC1C(=O)Oc1ccccc1C(=O)O (configuration not stated)           0.995
10  O=C(O)c1ccccc1OC(=O)C1CCCN1C(=O)COc1ccccc1 (configuration not stated)            1.02
11  CC(C)(Oc1ccc(CCNC(=O)c2ccc(Cl)cc2)cc1)C(=O)O           0.981
12  O=C(O)C1CCCN1C(=O)Cc1ccccc1 (configuration not stated)            1.06

====

Ratio by entry:
measurementDescription: Evaluated for antisickling activity, and ratio was calculated as solubility HbS (g/dL) / solubility HbS control(g/dL) at a concentration of 20 mM
Format: functional
reportedMetric: Ratio

> print(dat)
                                   molecule  observedresult
1  O=C(O)COc1cc(NC(=O)c2ccc(Cl)c(Cl)c2)cc(C(=O)O)c1            1.35
2  O=C(O)COc1cc(NC(=O)c2ccc(Br)cc2)cc(C(=O)O)c1            1.24
3  O=C(O)COc1cc(NC(=O)c2ccc(Cl)cc2)cc(C(=O)O)c1            1.34
4  CC(C)(C)C(=O)N1CCCC1C(=O)Oc1ccccc1C(=O)O (stereo not given)            1.03
5                  N[C@@H](Cc1ccccc1)C(=O)O            1.09

====

Items are presented alongside their recorded Ratio.
measurementDescription: Evaluated for antisickling activity, and ratio was calculated as solubility HbS compound (g/dL) / solubility HbS control(g/dL) at a concentration of 40 mM
Type: functional
reportedMetric: Ratio

> print(dat)
                                   molecule  observedresult
1  CC(C)(C)C(=O)N1CCCC1C(=O)Oc1ccccc1C(=O)O (stereo unspecified)            1.08
2   CCCCCCCC(=O)Nc1cc(OCC(=O)O)cc(C(=O)O)c1            1.43
3  O=C(O)c1ccccc1OC(=O)C1CCCN1C(=O)CCc1ccccc1 (stereo unspecified)           0.951
4  O=C(O)C1CCCN1C(=O)Cc1ccccc1 (stereo unspecified)            1.13
5  CC(C)(C)C(=O)N1CCCC1C(=O)O (stereo unspecified)            1.07
6  CC(C)(Oc1ccc(CCNC(=O)c2ccc(Cl)cc2)cc1)C(=O)O             1.2
